# subject-of-test: REFACTO® (recombinant factor VIII-like polypeptide consisting of amino acids 1-743 and 1638 through 2332 of human factor VIII) (human) (UniProt P00451)
# Sequence (P00451 20-762, chain 1 of 2): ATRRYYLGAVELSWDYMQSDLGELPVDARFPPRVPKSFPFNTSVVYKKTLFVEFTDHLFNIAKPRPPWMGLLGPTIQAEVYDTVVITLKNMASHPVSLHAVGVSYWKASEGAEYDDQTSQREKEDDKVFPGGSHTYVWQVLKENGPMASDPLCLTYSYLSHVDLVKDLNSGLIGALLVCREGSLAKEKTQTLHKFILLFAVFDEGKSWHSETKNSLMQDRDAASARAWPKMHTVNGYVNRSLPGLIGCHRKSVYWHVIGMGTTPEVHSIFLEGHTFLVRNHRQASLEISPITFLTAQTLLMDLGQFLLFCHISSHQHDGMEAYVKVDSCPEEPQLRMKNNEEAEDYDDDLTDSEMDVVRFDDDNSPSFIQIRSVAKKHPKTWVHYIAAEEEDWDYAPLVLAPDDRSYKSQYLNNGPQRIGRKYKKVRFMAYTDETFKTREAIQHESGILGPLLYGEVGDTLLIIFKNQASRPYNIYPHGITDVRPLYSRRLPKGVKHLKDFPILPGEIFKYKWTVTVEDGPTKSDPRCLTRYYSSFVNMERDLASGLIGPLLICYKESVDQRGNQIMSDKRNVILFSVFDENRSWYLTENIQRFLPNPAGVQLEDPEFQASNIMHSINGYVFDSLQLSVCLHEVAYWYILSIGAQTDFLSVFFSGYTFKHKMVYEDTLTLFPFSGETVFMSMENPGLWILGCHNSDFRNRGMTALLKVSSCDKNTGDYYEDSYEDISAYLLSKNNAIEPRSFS
# Sequence (P00451 1657-2351, chain 2 of 2): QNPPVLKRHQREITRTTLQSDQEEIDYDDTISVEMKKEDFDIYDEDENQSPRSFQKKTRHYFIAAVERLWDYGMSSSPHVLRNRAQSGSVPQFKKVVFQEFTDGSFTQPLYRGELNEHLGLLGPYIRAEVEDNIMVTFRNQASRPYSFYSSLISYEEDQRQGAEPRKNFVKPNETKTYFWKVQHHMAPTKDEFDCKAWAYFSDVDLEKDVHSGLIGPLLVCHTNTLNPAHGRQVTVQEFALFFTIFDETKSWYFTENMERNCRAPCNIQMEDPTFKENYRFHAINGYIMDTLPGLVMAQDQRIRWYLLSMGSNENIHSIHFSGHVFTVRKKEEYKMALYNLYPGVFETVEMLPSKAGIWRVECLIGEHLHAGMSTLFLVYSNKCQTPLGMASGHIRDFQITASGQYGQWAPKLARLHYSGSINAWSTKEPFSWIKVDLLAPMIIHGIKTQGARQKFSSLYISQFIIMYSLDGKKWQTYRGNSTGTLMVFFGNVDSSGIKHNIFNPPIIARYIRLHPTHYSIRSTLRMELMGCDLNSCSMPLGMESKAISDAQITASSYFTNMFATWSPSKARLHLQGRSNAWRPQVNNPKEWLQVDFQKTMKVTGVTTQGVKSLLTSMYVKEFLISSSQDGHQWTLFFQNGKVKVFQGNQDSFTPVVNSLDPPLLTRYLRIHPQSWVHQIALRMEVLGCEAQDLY
# assay: affinity column, peptide on Toyopearl Formyl 650-M; fraction quantified by RP-HPLC
Positions of bridges follow the written chain, without caps; N, C: chain ends. No end group written: not given here. *: point of attachment. NHNH2 = NN*
attribute-measured: % recovery in elution A (%)
Please give a number only; it is taken to be in %.

{"columns": ["binder", "numeric-result"],
 "data": [
  ["AEGTGDFHCIGVWFCLHDPGPEGGGS-NHNH2 (disulfide 9-15 (inferred)) [CS-455 (…-NHNH2)]", 1.4]
]}

Asked: Could you tell me which % recovery in elution A is on file for AEGTGDFGCSWLFPCPFDPGPEGGGS-NHNH2 (disulfide 9-15) [CS-456 (…-NHNH2)] ?
Given back: 44.8

Asked: Same lookup for AEGTGDHLCGAWFRPCDADPGPEGGGS-NHNH2 (disulfide 9-16) [CS-454 (…-NHNH2)] , please.
Given back: 45.1
